Target: CB2 (Homo sapiens, UniProt P34972, Q63R)
Sequence (P34972 whole entry Q63R): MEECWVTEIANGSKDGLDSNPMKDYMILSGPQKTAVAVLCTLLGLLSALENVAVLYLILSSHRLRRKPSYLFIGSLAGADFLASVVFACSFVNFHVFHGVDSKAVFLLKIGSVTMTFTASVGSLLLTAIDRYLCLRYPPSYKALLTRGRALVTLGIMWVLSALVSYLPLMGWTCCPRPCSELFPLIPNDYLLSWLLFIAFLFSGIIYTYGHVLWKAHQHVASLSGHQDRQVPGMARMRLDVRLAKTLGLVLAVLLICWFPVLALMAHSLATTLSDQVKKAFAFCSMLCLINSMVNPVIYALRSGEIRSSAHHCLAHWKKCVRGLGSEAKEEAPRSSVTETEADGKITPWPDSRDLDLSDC
Experiment: β-arrestin 1 translocation real-time BRET assay
Assay type: cell-based
Details: pEC50, β-arrestin 1 translocation to CB2, HEK 293 cells, coexpression of GRK5
reported.metric: EC50 (µM)
I only need the number, in µM, no unit after it.

Enquiry: So what does the record say about EC50 for CCCCC/C=C\C/C=C\C/C=C\C/C=C\CCCC(=O)OC(CO)CO ?
Return: 3.63

###

Target: CB2 (Homo sapiens, UniProt P34972, Q63R)
Test: β-arrestin 1 translocation real-time BRET assay
Type: cell-based
Conditions: pEC50, β-arrestin 1 translocation to CB2, HEK 293 cells, coexpression of GRK2
reported.metric: EC50 (µM)
Lab book: enter the figure in µM, no units written.

Enquiry: Look up EC50 for this compound: CCCCC/C=C\C/C=C\C/C=C\C/C=C\CCCC(=O)OC(CO)CO
Return: 2.29
